Test system: K-562 leukemia
Procedure Text: NCI tumour cell line growth inhibition, 48 h; in the data active = GI50 below about 0.43 µM; inactive = the rest
Can you answer with just one of these options? label 1 = active, label 0 = inactive

Solved cases below.
Compound	Label Value
O=c1cc(-c2ccccc2)nc2cc(-c3ccco3)[nH]n12	label 0
O=C(OC(CNc1c(C(=O)c2ccccc2)c(=O)n(Cc2ccccc2)c(=O)n1Cc1ccccc1)CN1CCCCC1)c1ccccc1 (centres undefined)	label 0
Cc1cccc2c1ccc1c3occ(C)c3c(=O)oc21	label 0
C=CCCC(O)c1ccc(CCCCCCCCCCC)o1 (centres undefined)	label 0
Cc1nc2sc(C(=O)Nc3cccc(Cl)c3C)c(N)c2cc1C(=O)c1ccccc1	label 1
COCO[C@@H]1CC2C=Nc3cc(OCc4ccccc4)c(OC)cc3C(=O)N2C1 (some centres undefined)	label 0
CNc1ccc(C(=O)CC(O)CCC(C)C2OC(=O)CC(O)CC(=O)CC(O)CC(O)CC(O)CC(O)CC3(O)CC(O)C(C(=O)NCCc4ccccn4)C(CC(OC4OC(C)C(O)C(N)C4O)/C=C/C=C/C=C/C=C\C=C/C=C/C=C/C2C)O3)cc1 (centres undefined)	label 0
COc1cc(/C=N/Nc2ncnc3c2cnn3Cc2ccccc2)ccc1O	label 0

Attention now shifts to the item below.
Could you please tell me the result logged for C[CH2][Sn]([Cl])([CH2]C)[CH2]C in this assay?
label 0

====

Tested on: SNB-19 CNS
Procedure Text: NCI tumour cell line growth inhibition, 48 h
Quick reference: GI50 of the listed items.

Reference set (2 entries):
>>> print(df.to_string())
                                   compound  assay_system  recorded_measurement
0    CCCN(CCC)c1ccc(/C=N/NC(=O)c2cccnc2)cc1    SNB-19 CNS               53.8 µM
1  c1ccc(C2=NN[C@H](c3cn(-c4ccccc4)nc3-c3ccccc3)C2)cc1    SNB-19 CNS               5.05 µM

// moving on: another record for GI50
# get_value(readout='GI50', item= CCC[CH2][Ge]([CH2]CCC)([CH2]CCC)[O]C(=O)C(OC(C)=O)c1ccccc1 (stereo not drawn) )
12 µM

====

Test system: SF-295 CNS
Procedure Text: NCI tumour cell line growth inhibition, 48 h
Quick reference: TGI of the listed items.
Report only the number, with the unit µM understood.

                                     smiles  experimental_endpoint  recorded_measurement
0  Cc1n(-c2ccccc2)c2c([n+]1Cc1ccc([N+](=O)[O-])cc1)C(=O)c1ccccc1C2=O                    TGI                  15.3

// moving on: another record for TGI
# get_value(readout='TGI', item= C=C(CN(C)C)C(=O)c1ccc(OC)cc1 )
45.7

====

Tested on: HOP-92 NSCLC
Procedure Text: NCI tumour cell line growth inhibition, 48 h; in the data active means GI50 below about 0.43 µM; inactive means the rest
Can you answer with just one of these options? active, inactive

Solved cases below.
                                   compound  label_value
0  CCCCC/C=C\C/C=C/CCCCCCCCNC(=O)Nc1ccc([N+](=O)[O-])cc1     inactive
1  OCCN1CCN(c2nc(Nc3ccc(-c4nc5ccccc5[nH]4)cc3)c3cn[nH]c3n2)CC1     inactive
2                   [O]=[W](=[O])([OH])[OH]     inactive
3  COc1cc(CCNc2nc3cc(N)cc(N)c3nc2-c2ccccc2)cc(OC)c1     inactive
4      O=C1C(Cl)=C(Nc2ccccn2)C(=O)c2ccccc21     inactive

Could you please tell me the result logged for C/C=C1\C[C@@H]2C(OC)Nc3cc(O)c(OC)cc3C(=O)N2C1 (stereo not given in full) in this assay?
active

Could you please tell me the result logged for COc1ccc2c(c1)c(-c1nc(-c3cn(C)c4ncccc34)cs1)cn2CCCCN1CCOCC1 in this assay?
inactive

Could you please tell me the result logged for O=C(Nc1cccc(-n2cc(-c3ccncc3)c(-c3ccc(O)c(Cl)c3)n2)c1)c1ccc(N2CCOCC2)c(C(F)(F)F)c1 in this assay?
inactive

Could you please tell me the result logged for CC(C)NCCCCCNc1cc(O)cc2cccnc12 in this assay?
inactive

Could you please tell me the result logged for COCO[C@@H]1CC2C=Nc3cc(OCc4ccccc4)c(OC)cc3C(=O)N2C1 (stereo not given in full) in this assay?
inactive

====

System: UO-31 renal
Procedure Text: NCI tumour cell line growth inhibition, 48 h; in the data active = GI50 below about 0.43 µM; inactive = the rest
Can you answer with just one of these options? active, inactive

Solved cases below.
In [3]: df
Out[3]:
                                   compound  assay_system  label_value
0         Cc1cccc2c1ccc1c3occ(C)c3c(=O)oc21   UO-31 renal     inactive
1  CN1CCN(CCCOc2ccc3nc(Nc4ccc(C(F)(F)F)c(Cl)c4)ccc3c2)CC1   UO-31 renal     inactive

Could you please tell me the result logged for CC(=O)Nc1ccc(S(=O)(=O)c2ccc(NC(C)=O)cc2)cc1 in this assay?
inactive

====

What follows is a record of GI50 for NCI-H460 lung.

Reference set (4 entries):
>>> df
                                   molecule  recorded_measurement
0  CS(=O)(=O)c1ccc(-c2[nH]c3ccc(F)cc3c2/C=N/NC(N)=S)cc1               2.28 µM
1    CCCN(CCC)c1ccc(/C=N/NC(=O)c2cccnc2)cc1               30.3 µM
2  O=C1CCCC(=O)C1C(=O)c1ccc(C(F)(F)F)cc1[N+](=O)[O-]              > 100 µM
3  CCNC(=O)c1ccc2c(c1)nc(-c1ccc(Cl)cc1)n2-c1cc(C(C)(C)C)[nH]n1               3.53 µM

# get_value(readout='GI50', item= CC(=O)OC1CC(C)c2c(Cl)ncnc21 (centres undefined) )
> 100 µM

# get_value(readout='GI50', item= C=CCCC(O)c1ccc(CCCCCCCCCCC)o1 (centres undefined) )
28.9 µM

# get_value(readout='GI50', item= O=C(O)CP(=O)(c1ccccc1)c1ccccc1.O=C(O)CP(=O)(c1ccccc1)c1ccccc1.[Cd] )
3.9 µM

# get_value(readout='GI50', item= C(=C\c1nc2ccccc2s1)/c1ccc(N2CCOCC2)s1 )
51.3 µM

# get_value(readout='GI50', item= O=C(Nc1ccc(Cl)cc1F)c1cc(Cl)ccc1O )
0.44 µM

====

Quick reference: TGI of the listed items.
Test system: K-562 leukemia
Procedure Text: NCI tumour cell line growth inhibition, 48 h

Reference set (2 entries):
In [3]: df
Out[3]:
                                   compound  experimental_endpoint  recorded_measurement
0  CCC[CH2][Ge]([CH2]CCC)([CH2]CCC)[O]C(=O)C(OC(C)=O)c1ccccc1 (configuration not stated)                    TGI               > 34 µM
1  O=C(NCCCCCCNC(=O)NC1OCC(O)C(O)C1O)NC1OCC(O)C(O)C1O (configuration not stated)                    TGI              > 100 µM

// moving on: another record for TGI
# get_value(readout='TGI', item= CS(=O)(=O)N(CC(=O)O)Cc1ccccc1 )
> 100 µM

====

Test system: IGROV1 ovarian
Procedure Text: NCI tumour cell line growth inhibition, 48 h; in the data active = GI50 below about 0.43 µM; inactive = the rest
Can you answer with just one of these options? active, inactive

Could you please tell me the result logged for COCO[C@@H]1CC2C=Nc3cc(OCc4ccccc4)c(OC)cc3C(=O)N2C1 (some centres undefined) in this assay?
inactive

Could you please tell me the result logged for CNC(=O)c1c(NC(=O)c2ccc(C(C)C)cc2)sc2c1CCC(=O)C2 in this assay?
inactive

Could you please tell me the result logged for O=C1C(Cl)=C(Nc2ccccn2)C(=O)c2ccccc21 in this assay?
inactive

Could you please tell me the result logged for Cc1cccc2c1ccc1c3occ(C)c3c(=O)oc21 in this assay?
inactive

Could you please tell me the result logged for O=C(Nc1cccc(-n2cc(-c3ccncc3)c(-c3ccc(O)c(Cl)c3)n2)c1)c1ccc(N2CCOCC2)c(C(F)(F)F)c1 in this assay?
inactive

====

System: M14 melanoma
Procedure Text: NCI tumour cell line growth inhibition, 48 h
Each entry gets FALSE if its TGI stays under 20 µM, and TRUE if its TGI is 20 µM or above.

>>> df
                                   molecule  assay_system  label_value
0  COc1ccc2[nH]cc(CN3CCC(CO)(c4ccccc4)CC3)c2c1  M14 melanoma         TRUE
1             CC(C)NCCCCCNc1cc(O)cc2cccnc12  M14 melanoma         TRUE
2            C[CH2][Sn]([Cl])([CH2]C)[CH2]C  M14 melanoma        FALSE
3              COC(=O)C(CCSc1ccccc1)C(=O)OC  M14 melanoma         TRUE
4  COC(=O)C1CCC[C@H]2C(CO)=C(C)C(=O)[C@@H]12 (stereo partly specified)  M14 melanoma         TRUE

Hi, just wondering whether Cc1cn2c(/C=N/N=C(N)N)c(-c3cc(Cl)sc3Cl)nc2s1 shows TGI of 20 µM or higher.
FALSE

Where do the numbers come from? From PubChem BioAssay (NCI).
